Reference source for all entries: patent US10919877B2

target: PI3Kγ (Homo sapiens); construct: purchased Life Technologies (assay run by the vendor); test: PI3K subtype enzyme inhibition; type: biochemical; details: read-out: PI3K Subtype Enzyme Inhibition Data IC50 PI3Kγ
pIC50: −log10 of the molar value.
Hi, to clarify the labels: y covers pIC50 from 7 upward, n covers anything below 7.

[
  {
    "compound": "O=C(NOCCOCCOCCOCCN1CCN(c2nc(N3CCOCC3)nc(-n3c(C(F)F)nc4ccccc43)n2)CC1)c1ccc(F)c(F)c1Nc1ccc(I)cc1F [Compound 14]",
    "target_under_test": "PI3Kγ (Homo sapiens)",
    "discrete_label": "n"
  },
  {
    "compound": "O=C(NOCCOCCOCCOCCC(=O)N1CCN(c2nc(N3CCOCC3)nc(-n3c(C(F)F)nc4ccccc43)n2)CC1)c1ccc(F)c(F)c1Nc1ccc(I)cc1F [ST-168]",
    "target_under_test": "PI3Kγ (Homo sapiens)",
    "discrete_label": "n"
  },
  {
    "compound": "CN(CCOCCOCCONC(=O)c1ccc(F)c(F)c1Nc1ccc(I)cc1F)CCN(C)CCOCCOCCC(=O)N1CCN(c2nc(N3CCOCC3)nc(-n3c(C(F)F)nc4ccccc43)n2)CC1 [ST-180]",
    "target_under_test": "PI3Kγ (Homo sapiens)",
    "discrete_label": "n"
  },
  {
    "compound": "CN(CCOCCOCCONC(=O)c1ccc(F)c(F)c1Nc1ccc(I)cc1F)CC[N+](C)(C)CCOCCOCCC(=O)N1CCN(c2nc(N3CCOCC3)nc(-n3c(C(F)F)nc4ccccc43)n2)CC1 [ST-5-05]",
    "target_under_test": "PI3Kγ (Homo sapiens)",
    "discrete_label": "n"
  },
  {
    "compound": "O=C(O)CCNc1nc(N2CCOCC2)nc(-n2c(C(F)F)nc3ccccc32)n1 [ST-5-25]",
    "target_under_test": "PI3Kγ (Homo sapiens)",
    "discrete_label": "y"
  },
  {
    "compound": "OCCNc1nc(N2CCOCC2)nc(-n2c(C(F)F)nc3ccccc32)n1 [ST-187]",
    "target_under_test": "PI3Kγ (Homo sapiens)",
    "discrete_label": "y"
  }
]

----------
molecular target: PI3K (Homo sapiens, UniProt P42336)
Sequence (P42336 whole entry): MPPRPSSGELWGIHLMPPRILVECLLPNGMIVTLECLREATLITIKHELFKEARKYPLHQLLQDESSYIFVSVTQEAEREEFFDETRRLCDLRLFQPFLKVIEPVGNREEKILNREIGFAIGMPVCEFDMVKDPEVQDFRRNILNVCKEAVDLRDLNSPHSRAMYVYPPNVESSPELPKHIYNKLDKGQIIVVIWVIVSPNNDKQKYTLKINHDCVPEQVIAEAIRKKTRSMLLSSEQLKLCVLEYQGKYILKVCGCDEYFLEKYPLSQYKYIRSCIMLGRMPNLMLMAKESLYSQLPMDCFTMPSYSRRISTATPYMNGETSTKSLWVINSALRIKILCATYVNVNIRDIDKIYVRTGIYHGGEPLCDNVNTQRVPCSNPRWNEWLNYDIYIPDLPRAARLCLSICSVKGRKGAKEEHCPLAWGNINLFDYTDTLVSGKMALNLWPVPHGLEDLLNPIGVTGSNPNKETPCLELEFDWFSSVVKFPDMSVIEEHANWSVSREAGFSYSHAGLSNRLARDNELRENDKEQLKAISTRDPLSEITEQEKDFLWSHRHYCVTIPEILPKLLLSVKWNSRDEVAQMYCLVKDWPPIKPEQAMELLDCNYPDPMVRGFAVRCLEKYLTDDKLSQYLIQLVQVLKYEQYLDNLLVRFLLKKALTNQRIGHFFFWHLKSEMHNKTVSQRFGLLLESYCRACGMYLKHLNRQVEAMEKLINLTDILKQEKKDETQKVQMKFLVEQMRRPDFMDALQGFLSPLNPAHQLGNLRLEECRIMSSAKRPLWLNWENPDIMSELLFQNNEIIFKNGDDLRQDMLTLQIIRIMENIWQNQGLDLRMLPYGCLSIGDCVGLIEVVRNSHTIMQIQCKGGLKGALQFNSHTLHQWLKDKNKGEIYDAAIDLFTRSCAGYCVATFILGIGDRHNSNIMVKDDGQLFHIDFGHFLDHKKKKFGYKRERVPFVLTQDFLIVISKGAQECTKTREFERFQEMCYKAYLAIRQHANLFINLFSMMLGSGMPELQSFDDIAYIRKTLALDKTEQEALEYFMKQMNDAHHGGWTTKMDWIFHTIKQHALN
pIC50: −log10 of the molar value.

[
  {
    "compound_structure_string": "O=C(NOCCOCCOCCOCCN1CCN(c2nc(N3CCOCC3)nc(-n3c(C(F)F)nc4ccccc43)n2)CC1)c1ccc(F)c(F)c1Nc1ccc(I)cc1F",
    "pIC50": "6.47 to 6.72"
  }
]

----------
biological target: PI3Kα (Homo sapiens, UniProt P42336); construct: purchased Life Technologies (assay run by the vendor); assay: PI3K subtype enzyme inhibition; assay type: biochemical; conditions: table of additional PI3K inhibitors; read-out: PI3Kα IC50

[
  {
    "compound_structure_string": "COCCNc1nc(N2CCOCC2)nc(-n2c(C(F)F)nc3ccccc32)n1",
    "IC50, nM": 20
  },
  {
    "compound_structure_string": "CNC(=O)CCNc1nc(N2CCOCC2)nc(-n2c(C(F)F)nc3ccccc32)n1",
    "IC50, nM": 20
  },
  {
    "compound_structure_string": "NCCNc1nc(N2CCOCC2)nc(-n2c(C(F)F)nc3ccccc32)n1",
    "IC50, nM": 292
  },
  {
    "compound_structure_string": "CNCCNc1nc(N2CCOCC2)nc(-n2c(C(F)F)nc3ccccc32)n1",
    "IC50, nM": 248
  },
  {
    "compound_structure_string": "OCCNc1nc(N2CCOCC2)nc(-n2c(C(F)F)nc3ccccc32)n1",
    "IC50, nM": 9.9
  },
  {
    "compound_structure_string": "O=C(O)CCNc1nc(N2CCOCC2)nc(-n2c(C(F)F)nc3ccccc32)n1",
    "IC50, nM": 12.4
  }
]

----------
biological target: PI3Kδ (Homo sapiens, UniProt O00329); construct: purchased Life Technologies (assay run by the vendor); test: PI3K subtype enzyme inhibition; assay type: biochemical; settings: table of additional PI3K inhibitors; read-out: PI3Kδ IC50

[
  {
    "compound": "CNCCNc1nc(N2CCOCC2)nc(-n2c(C(F)F)nc3ccccc32)n1 [ST-5-02]",
    "target_under_test": "PI3Kδ (Homo sapiens, UniProt O00329)",
    "IC50 / nM": 135
  },
  {
    "compound": "O=C(O)CCNc1nc(N2CCOCC2)nc(-n2c(C(F)F)nc3ccccc32)n1 [ST-5-25]",
    "target_under_test": "PI3Kδ (Homo sapiens, UniProt O00329)",
    "IC50 / nM": 60
  },
  {
    "compound": "NCCNc1nc(N2CCOCC2)nc(-n2c(C(F)F)nc3ccccc32)n1 [ST-177]",
    "target_under_test": "PI3Kδ (Homo sapiens, UniProt O00329)",
    "IC50 / nM": 291
  },
  {
    "compound": "CNC(=O)CCNc1nc(N2CCOCC2)nc(-n2c(C(F)F)nc3ccccc32)n1 [ST-5-21]",
    "target_under_test": "PI3Kδ (Homo sapiens, UniProt O00329)",
    "IC50 / nM": 26
  },
  {
    "compound": "OCCNc1nc(N2CCOCC2)nc(-n2c(C(F)F)nc3ccccc32)n1 [ST-187]",
    "target_under_test": "PI3Kδ (Homo sapiens, UniProt O00329)",
    "IC50 / nM": 8.1
  },
  {
    "compound": "COCCNc1nc(N2CCOCC2)nc(-n2c(C(F)F)nc3ccccc32)n1 [ST-178]",
    "target_under_test": "PI3Kδ (Homo sapiens, UniProt O00329)",
    "IC50 / nM": 17
  }
]

----------
biological target: PI3Kγ (Homo sapiens, UniProt P48736); construct: purchased Life Technologies (assay run by the vendor); assay: PI3K subtype enzyme inhibition; format: biochemical; conditions: ST-182 and intermediates; read-out: PI3Kγ IC50
Sequence (P48736 whole entry): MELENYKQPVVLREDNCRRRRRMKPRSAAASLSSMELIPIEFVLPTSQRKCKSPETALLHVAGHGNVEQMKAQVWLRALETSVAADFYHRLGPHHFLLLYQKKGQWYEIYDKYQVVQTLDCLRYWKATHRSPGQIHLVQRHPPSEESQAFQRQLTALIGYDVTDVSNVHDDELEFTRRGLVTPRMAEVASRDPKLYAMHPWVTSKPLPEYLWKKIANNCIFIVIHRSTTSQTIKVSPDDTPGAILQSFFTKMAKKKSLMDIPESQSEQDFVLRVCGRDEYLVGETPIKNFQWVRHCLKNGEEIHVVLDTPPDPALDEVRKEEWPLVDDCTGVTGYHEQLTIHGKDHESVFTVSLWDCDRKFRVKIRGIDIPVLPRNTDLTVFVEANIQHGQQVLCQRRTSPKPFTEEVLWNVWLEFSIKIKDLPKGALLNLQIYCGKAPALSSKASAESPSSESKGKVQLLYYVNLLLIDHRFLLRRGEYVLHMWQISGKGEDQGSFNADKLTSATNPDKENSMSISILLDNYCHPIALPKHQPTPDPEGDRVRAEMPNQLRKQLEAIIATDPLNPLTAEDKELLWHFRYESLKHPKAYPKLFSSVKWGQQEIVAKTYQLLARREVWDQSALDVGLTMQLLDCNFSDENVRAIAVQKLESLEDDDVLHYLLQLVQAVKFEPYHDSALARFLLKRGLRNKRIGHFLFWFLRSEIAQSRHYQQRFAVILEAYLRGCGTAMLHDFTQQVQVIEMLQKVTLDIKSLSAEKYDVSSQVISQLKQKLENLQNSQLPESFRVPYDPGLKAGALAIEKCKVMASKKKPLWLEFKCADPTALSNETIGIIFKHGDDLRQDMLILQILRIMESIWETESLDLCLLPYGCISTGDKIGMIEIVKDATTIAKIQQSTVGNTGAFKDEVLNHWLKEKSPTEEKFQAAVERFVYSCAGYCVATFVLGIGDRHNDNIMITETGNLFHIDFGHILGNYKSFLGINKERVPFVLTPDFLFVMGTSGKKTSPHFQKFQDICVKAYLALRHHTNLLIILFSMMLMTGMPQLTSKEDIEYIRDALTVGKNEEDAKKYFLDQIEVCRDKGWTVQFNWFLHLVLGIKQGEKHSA
pIC50: −log10 of the molar value.
value_type: pIC50

[
  {
    "compound": "COc1ncc(-c2ccc3nccc(-c4ccnnc4)c3c2)cc1NS(=O)(=O)c1ccc(F)cc1F [GSK 458, reference compound]",
    "value_type": "pIC50",
    "measured": 9.08
  }
]

----------
biological target: PI3Kβ (Homo sapiens); construct: purchased Life Technologies (assay run by the vendor); assay: PI3K subtype enzyme inhibition; type: biochemical; settings: read-out: PI3K Subtype Enzyme Inhibition Data IC50 PI3Kβ
Sequence (P42338 whole entry): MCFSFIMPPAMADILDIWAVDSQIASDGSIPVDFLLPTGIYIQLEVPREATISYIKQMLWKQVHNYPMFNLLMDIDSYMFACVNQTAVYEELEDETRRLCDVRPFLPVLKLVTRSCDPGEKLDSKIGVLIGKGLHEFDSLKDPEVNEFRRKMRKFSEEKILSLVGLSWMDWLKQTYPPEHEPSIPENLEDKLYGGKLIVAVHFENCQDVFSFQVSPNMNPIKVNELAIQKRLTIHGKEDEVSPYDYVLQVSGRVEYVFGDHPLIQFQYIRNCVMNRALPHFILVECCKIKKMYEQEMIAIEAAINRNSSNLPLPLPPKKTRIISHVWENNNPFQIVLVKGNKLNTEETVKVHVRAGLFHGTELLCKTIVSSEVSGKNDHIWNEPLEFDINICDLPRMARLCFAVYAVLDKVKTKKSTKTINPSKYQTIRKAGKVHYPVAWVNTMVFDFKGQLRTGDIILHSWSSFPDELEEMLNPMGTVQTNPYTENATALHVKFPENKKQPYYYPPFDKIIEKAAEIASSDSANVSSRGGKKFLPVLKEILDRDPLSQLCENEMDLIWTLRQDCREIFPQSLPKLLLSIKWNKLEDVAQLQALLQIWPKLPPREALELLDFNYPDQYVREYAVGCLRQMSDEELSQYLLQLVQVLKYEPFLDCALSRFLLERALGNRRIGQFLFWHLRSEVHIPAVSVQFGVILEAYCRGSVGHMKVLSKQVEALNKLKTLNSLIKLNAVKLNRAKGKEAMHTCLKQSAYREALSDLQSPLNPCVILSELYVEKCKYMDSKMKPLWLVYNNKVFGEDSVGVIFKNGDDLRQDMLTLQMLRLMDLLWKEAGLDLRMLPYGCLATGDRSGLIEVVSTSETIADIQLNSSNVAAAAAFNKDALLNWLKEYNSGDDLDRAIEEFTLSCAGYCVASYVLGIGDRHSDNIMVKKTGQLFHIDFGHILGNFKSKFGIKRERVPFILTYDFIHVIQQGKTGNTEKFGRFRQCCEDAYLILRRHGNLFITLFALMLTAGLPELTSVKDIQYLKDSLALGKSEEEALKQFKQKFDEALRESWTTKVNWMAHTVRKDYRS
Sequence (P27986 whole entry partner): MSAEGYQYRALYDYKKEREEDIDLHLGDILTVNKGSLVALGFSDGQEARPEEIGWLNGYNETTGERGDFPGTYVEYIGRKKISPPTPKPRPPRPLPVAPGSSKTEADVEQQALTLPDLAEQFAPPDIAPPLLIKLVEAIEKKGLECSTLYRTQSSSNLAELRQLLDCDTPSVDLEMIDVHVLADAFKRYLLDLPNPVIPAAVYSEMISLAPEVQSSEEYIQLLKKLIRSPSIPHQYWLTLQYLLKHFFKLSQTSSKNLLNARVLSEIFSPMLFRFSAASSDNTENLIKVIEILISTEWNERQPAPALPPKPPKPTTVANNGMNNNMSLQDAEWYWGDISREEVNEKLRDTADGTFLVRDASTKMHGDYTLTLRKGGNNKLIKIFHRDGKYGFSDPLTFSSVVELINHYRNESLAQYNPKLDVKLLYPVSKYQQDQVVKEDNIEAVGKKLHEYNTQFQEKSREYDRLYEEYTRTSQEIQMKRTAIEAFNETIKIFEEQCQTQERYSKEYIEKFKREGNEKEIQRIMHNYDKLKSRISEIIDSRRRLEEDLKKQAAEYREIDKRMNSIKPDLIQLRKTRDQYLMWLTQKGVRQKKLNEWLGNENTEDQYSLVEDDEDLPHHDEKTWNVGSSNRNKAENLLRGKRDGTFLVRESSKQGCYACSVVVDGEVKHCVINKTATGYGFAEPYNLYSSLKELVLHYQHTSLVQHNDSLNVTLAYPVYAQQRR
pIC50: −log10 of the molar value.
Reported pIC50 is given for each of the following compounds.
value_type: pIC50

[
  {
    "compound_structure_string": "CNC(=O)CCNc1nc(N2CCOCC2)nc(-n2c(C(F)F)nc3ccccc32)n1",
    "measured": 6.37
  },
  {
    "compound_structure_string": "CN(CCOCCOCCONC(=O)c1ccc(F)c(F)c1Nc1ccc(I)cc1F)CCN(C)CCOCCOCCC(=O)N1CCN(c2nc(N3CCOCC3)nc(-n3c(C(F)F)nc4ccccc43)n2)CC1",
    "measured": 5.65
  },
  {
    "compound_structure_string": "COCCNc1nc(N2CCOCC2)nc(-n2c(C(F)F)nc3ccccc32)n1",
    "measured": 6.68
  },
  {
    "compound_structure_string": "CC(=O)N1CCN(c2nc(N3CCOCC3)nc(-n3c(C(F)F)nc4ccccc43)n2)CC1",
    "measured": 7.84
  },
  {
    "compound_structure_string": "NCCNc1nc(N2CCOCC2)nc(-n2c(C(F)F)nc3ccccc32)n1",
    "measured": 5.67
  },
  {
    "compound_structure_string": "O=C(O)CCNc1nc(N2CCOCC2)nc(-n2c(C(F)F)nc3ccccc32)n1",
    "measured": 6.10
  },
  {
    "compound_structure_string": "O=C(NOCCOCCOCCOCCN1CCN(c2nc(N3CCOCC3)nc(-n3c(C(F)F)nc4ccccc43)n2)CC1)c1ccc(F)c(F)c1Nc1ccc(I)cc1F",
    "measured": 5.39
  },
  {
    "compound_structure_string": "NOCCOCCOCCOCCC(=O)N1CCN(c2nc(N3CCOCC3)nc(-n3c(C(F)F)nc4ccccc43)n2)CC1",
    "measured": 6.67
  },
  {
    "compound_structure_string": "CC(=O)NCCNc1nc(N2CCOCC2)nc(-n2c(C(F)F)nc3ccccc32)n1",
    "measured": 6.70
  }
]

----------
biological target: MEK1 (Homo sapiens)
Sequence (Q02750 whole entry): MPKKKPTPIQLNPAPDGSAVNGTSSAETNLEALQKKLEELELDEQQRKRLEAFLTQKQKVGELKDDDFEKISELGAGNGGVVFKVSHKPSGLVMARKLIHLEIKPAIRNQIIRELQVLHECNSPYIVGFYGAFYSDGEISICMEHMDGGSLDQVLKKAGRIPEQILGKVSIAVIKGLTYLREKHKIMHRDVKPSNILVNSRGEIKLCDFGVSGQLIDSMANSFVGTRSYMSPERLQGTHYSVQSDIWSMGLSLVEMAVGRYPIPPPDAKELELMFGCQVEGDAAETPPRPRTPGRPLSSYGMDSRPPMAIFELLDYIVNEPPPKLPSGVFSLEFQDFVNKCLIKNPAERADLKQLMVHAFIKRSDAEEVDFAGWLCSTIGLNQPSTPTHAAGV
value_type: IC50 (nM)

[
  {
    "compound": "O=C(NOCCOCCOCCOCCN1CCN(c2nc(N3CCOCC3)nc(-n3c(C(F)F)nc4ccccc43)n2)CC1)c1ccc(F)c(F)c1Nc1ccc(I)cc1F [Compound 14]",
    "measured": 0.15
  }
]
